System: Bacillus subtilis
Experiment summary: Antibacterial activity against Bacillus subtilis ATCC 169 by CLSI broth microdilution method
Assay type: functional
Calls of active or inactive are those of the source. No cut-off for these calls is given here.
Observable: Activity

[
  {
    "Compound": "Cc1c(CCCCCO)cc(O)c(C=O)c1O",
    "Observable": "Activity",
    "Test value": "inactive"
  },
  {
    "Compound": "Cc1c(CCC(=O)O)cc(O)c(C=O)c1O",
    "Observable": "Activity",
    "Test value": "inactive"
  },
  {
    "Compound": "Cc1c(CCCCC(=O)O)cc(O)c(C=O)c1O",
    "Observable": "Activity",
    "Test value": "inactive"
  },
  {
    "Compound": "Cc1c(CCCC(O)CO)cc(O)c(C=O)c1O (centres undefined)",
    "Observable": "Activity",
    "Test value": "inactive"
  }
]
